System Name: COVID-19 S1 Spike Protein Mutant L452R (SARS-CoV-2), P0DTC2
Run Description: FP direct binding
pKd: −log10 of the molar value. Non-standard residues stand in square brackets, D forms with d. No end group written: not given here. Sar = CNCC(=O)O
Quick reference for pKd among some binders
Reported Metric: pKd

> print(dat)
                                     binder  numeric.readout
1  ACDVCGLNAFNRCA[Sar][Sar][Sar][Sar][Sar][Sar][KFl] (cysteine pairing not given here) [BCY16287]             7.28
2  ACEDHDWVYCSTCA[Sar][Sar][Sar][Sar][Sar][Sar][KFl] (cysteine pairing not given here) [BCY15299]             6.26
